Let's look at some pIC50 data for Acrosin (Homo sapiens) that I collected from the literature.
pIC50: −log10 of the molar value.
recorded metric: pIC50

Solved cases below.
Notebook: `COC(=O)Nc1nc2ccc(S(=O)(=O)NCc3ccc(F)c(F)c3)cc2[nH]1` , pIC50 read as 2.80

Notebook: `CC(C)(C)c1ccc(OC(=O)c2ccc(NC(=N)N)cc2)cc1` , pIC50 read as 7.55

Notebook: `COC(=O)c1cccc(OC(=O)c2ccc(NC(=N)N)cc2)c1` , pIC50 read as 8.27

[P] COC(=O)Nc1nc2ccc(S(=O)(=O)NC(C)C)cc2[nH]1
[Q] CCOC(=O)c1ccc(NC(=O)c2cc(-c3ccc(NC(=N)N)cc3)on2)cc1
[R] COc1ccc(NC(=O)c2cc(-c3ccc(NC(=N)N)cc3)on2)c(OC)c1
[S] N=C(N)Nc1ccc(-c2cc(C(=O)Nc3ccc(Nc4ccccc4)cc3)n[nH]2)cc1
Problem: List the 4 entries from lowest pIC50 to highest pIC50 value. Answer format: list of labels, ordered as asked.
Solution: P, S, Q, R

###

pIC50: −log10 of the molar value.
Let's look at some pIC50 data for Acrosin (Homo sapiens) that I collected from the literature.
recorded metric: pIC50

Solved cases below.
Notebook: `COC(=O)Nc1nc2ccc(S(=O)(=O)NCc3ccccc3Cl)cc2[nH]1` , pIC50 read as 2.24

Notebook: `N=C(N)Nc1ccc(-c2cc(C(=O)Nc3cccc(Br)c3)no2)cc1` , pIC50 read as 4.84

Notebook: `CCCCNS(=O)(=O)c1ccc2nc(NC(=O)OC)[nH]c2c1` , pIC50 read as 2.75

[1] O=C(NCCO)Nc1nc2ccc(S(=O)(=O)NCc3cc(Cl)cc(Cl)c3)cc2[nH]1
[2] N=C(N)Nc1ccc(C(=O)Oc2cccc(C(F)(F)F)c2)cc1
[3] N=C(N)Nc1ccc(-c2cc(C(=O)Nc3ccccc3)n[nH]2)cc1
[4] COc1ccc(-c2cc(C(=O)N(CCO)CCO)n[nH]2)cc1
Problem: List from greatest to least pIC50. Answer format: list of labels, ordered as asked.
Solution: 2, 3, 1, 4
(2: 7.41, 3: 4.82, 1: 2.61, 4: 2.24)
